Every entry's value here was drawn from patent US8546343B2.

- System: M. smegmatis ΔrrnB 1491A (16S rRNA position 1491 A, eukaryotic cytosolic ribosomes)
- experimental-details: MIC, recombinant M. smegmatis with mutant ribosomes 1491A
- Assay type: cell-based, Mycobacterium smegmatis
- measurement-setup: M. smegmatis ΔrrnB 1491A mutant ribosomes; 72 h at 37° C.
- Description: The strain used for introduction/selection of mutational alterations was a genetically modified derivative of Mycobacterium smegmatis carrying a single functional chromosomal rRNA operon (Sander et al. Mol. Microbiol. 1996, 22: 841-848). This strain, termed M. smegmatis rrn^−, allowed for the selection of mutational rRNA gene alterations using a plasmid carrying the rRNA gene with the respective mutational alteration.) […]
property-label: minimal inhibitory concentrations ΔrrnB 1491A

Please report minimal inhibitory concentrations ΔrrnB 1491A for the following compound: NC[C@@H]1O[C@H](O[C@H]2[C@@H](O)[C@H](O[C@@H]3[C@@H](O)[C@H](N)C[C@H](N)[C@H]3O[C@H]3O[C@@H]4CO[C@@H](c5ccc(-c6ccccc6)cc5)O[C@H]4[C@H](O)[C@H]3N)O[C@@H]2CO)[C@H](N)[C@@H](O)[C@@H]1O [Compound 5.11, 4′,6′-O-p-Phenylbenzylideneparomomycin]
64 to 128 µg/mL

Give reported minimal inhibitory concentrations ΔrrnB 1491A value for COc1cc(OC)cc([C@@H]2OC[C@H]3O[C@H](O[C@H]4[C@H](O[C@@H]5O[C@H](CO)[C@@H](O[C@H]6O[C@@H](CN)[C@@H](O)[C@H](O)[C@H]6N)[C@H]5O)[C@@H](O)[C@H](N)C[C@@H]4N)[C@H](N)[C@@H](O)[C@@H]3O2)c1 [Compound 5.13]
>512 µg/mL

Note minimal inhibitory concentrations ΔrrnB 1491A for the compound shown: NC[C@@H]1O[C@H](O[C@H]2[C@@H](O)[C@H](O[C@@H]3[C@@H](O)[C@H](N)C[C@H](N)[C@H]3O[C@H]3O[C@@H]4CO[C@@H](c5cccc6ccccc56)O[C@H]4[C@H](O)[C@H]3N)O[C@@H]2CO)[C@H](N)[C@@H](O)[C@@H]1O [Compound 5.19, 4′,6′-O-1-Naphthylideneparomomycin]
256 to 512 µg/mL

* * *

- Test system: M. smegmatis ΔrrnB 1491A (16S rRNA position 1491 A, eukaryotic cytosolic ribosomes)
- experimental-details: MIC, recombinant M. smegmatis with mutant ribosomes 1491A
- Assay type: cell-based, Mycobacterium smegmatis
- measurement-setup: M. smegmatis ΔrrnB 1491A mutant ribosomes; 72 h at 37° C.
Would you kindly list minimal inhibitory concentrations ΔrrnB 1491A for each of these molecules?

Note down minimal inhibitory concentrations ΔrrnB 1491A recorded for NC[C@@H]1O[C@H](O[C@H]2[C@@H](O)[C@H](O[C@@H]3[C@@H](O)[C@H](N)C[C@H](N)[C@H]3O[C@H]3O[C@H](CO)[C@@H](OCOCc4ccccc4)[C@H](O)[C@H]3N)O[C@@H]2CO)[C@H](N)[C@@H](O)[C@@H]1O [Compound 19d, 4′-Benzyloxymethylparomomycin]
>512 µg/mL

Look up and state reported minimal inhibitory concentrations ΔrrnB 1491A for COc1ccc([C@@H]2OC[C@H]3O[C@H](O[C@H]4[C@H](O[C@@H]5O[C@H](CO)[C@@H](O[C@H]6O[C@@H](CN)[C@@H](O)[C@H](O)[C@H]6N)[C@H]5O)[C@@H](O)[C@H](N)C[C@@H]4N)[C@H](N)[C@@H](O)[C@@H]3O2)cc1 [Compound 5.2, 4′,6′-O-p-Methoxybenzylideneparomomycin]
>512 µg/mL

Please report minimal inhibitory concentrations ΔrrnB 1491A for the following molecule: NC[C@@H]1O[C@H](O[C@H]2[C@@H](O)[C@H](O[C@@H]3[C@@H](O)[C@H](N)C[C@H](N)[C@H]3O[C@H]3O[C@@H]4CO[C@@H](c5ccc(Cl)cc5)O[C@H]4[C@H](O)[C@H]3N)O[C@@H]2CO)[C@H](N)[C@@H](O)[C@@H]1O [Compound 5.8, 4′,6′-O-p-Chlorobenzylideneparomomycin]
>512 µg/mL
